Would you mind labelling by melting point? At or over 100 °C is yes (1), under is no (0).

Past entries and their recorded results:
Fc1ccc(Oc2nc3ccccc3nc2C(Cl)(Cl)Cl)cc1 [3g]	no (0)
Clc1ccc(Oc2nc3ccccc3nc2C(Cl)(Cl)Cl)c(Cl)c1 [3d]	yes (1)
O=[N+]([O-])c1ccc(Oc2nc3ccccc3nc2C(F)(F)F)cc1 [3v]	yes (1)

Query compound follows.
Prompt: Hello, I need to know if N=S(=O)(c1ccc(Oc2nc3ccccc3nc2C(Cl)(Cl)Cl)cc1)C(F)(F)F (centres unmarked) [3p] has measured melting point not below 100 °C. Thanks!
Response: yes (1)

* * *

MEASURED METRIC: melting point
Returns: string containing the numeric result and its unit.

Fc1ccccc1Oc1nc2ccccc2nc1C(Cl)(Cl)Cl	138 °C
FS(F)(F)(F)(F)c1ccc(Oc2nc3ccccc3nc2C(Cl)(Cl)Cl)cc1	99 °C
COc1ccc(Oc2nc3ccccc3nc2C(Cl)(Cl)Cl)cc1	171 °C

// field: melting point; key: O=[N+]([O-])c1ccc(Oc2nc3ccccc3nc2C(Cl)Cl)cc1 ; value = 112 °C

* * *

PROCEDURE SUMMARY: In vitro cytotoxicity evaluation HepG2 (MTT)
Assay type: cell-based, human
PARTICULARS: human, CC50 HepG2 (µM) ± SD
Experimental: For all molecules, the selectivity index was calculated as following SI = CC50/EC50. Triplicate assays were performed for each sample. […] The absorbance was measured at 570 nm with 630 nm as reference wavelength using a BIO-TEK ELx808 Absorbance Microplate Reader (LabX, Midland, ON, Canada). […] Cell viability was calculated as a percentage of control (cells incubated without compound). […] CC50 values to represent the mean value calculated from three independent experiments.
// CC50 at 72 h lookup, one value per entry
Lab book: enter the figure in µM, no units written.

Fc1ccc(Oc2nc3ccccc3nc2C(Cl)(Cl)Cl)cc1	35.9

// field: CC50 at 72 h; key: FC(F)(F)Oc1ccc(Oc2nc3ccccc3nc2C(Cl)(Cl)Cl)cc1 ; value = 27.1

// field: CC50 at 72 h; key: ClC(Cl)(Cl)c1nc2ccccc2nc1Oc1ccccc1 ; value = 45.3

// field: CC50 at 72 h; key: FC(F)(F)c1ccc(Oc2nc3ccccc3nc2C(Cl)(Cl)Cl)cc1 ; value = 28.3

// field: CC50 at 72 h; key: N=S(=O)(c1ccc(Oc2nc3ccccc3nc2C(Cl)(Cl)Cl)cc1)C(F)(F)F (stereo not shown) ; value = 6.5

// field: CC50 at 72 h; key: Clc1ccc(Oc2nc3ccccc3nc2C(Cl)(Cl)Cl)c(Cl)c1 ; value = 37.7

// field: CC50 at 72 h; key: Fc1cccc(Oc2nc3ccccc3nc2C(Cl)(Cl)Cl)c1 ; value = 33.5

// field: CC50 at 72 h; key: FS(F)(F)(F)(F)c1ccc(Oc2nc3ccccc3nc2C(Cl)(Cl)Cl)cc1 ; value = 15.4

* * *

PROCEDURE SUMMARY: In vitro cytotoxicity evaluation HepG2 (MTT)
Format: cell-based, human
PARTICULARS: human, CC50 HepG2 (µM) ± SD
// CC50 at 72 h lookup, one value per entry

Observe how each entry below is paired with its result.
ClC(Cl)(Cl)c1nc2ccccc2nc1Oc1ccc(-c2ccccc2)cc1	> 62.5 µM
FC(F)(F)Sc1ccc(Oc2nc3ccccc3nc2C(Cl)(Cl)Cl)cc1	25.6 µM

Now let's try a different one.
// field: CC50 at 72 h; key: Fc1ccccc1Oc1nc2ccccc2nc1C(Cl)(Cl)Cl ; value = > 15.6 µM
